- System: MCF10A
- assayExplanation: percent viability (nuclei count relative to siNT); higher = more viable cells
- experimentalContext: 20 nM; 72 h
Binary call on percent viability with cut-off 40%: strictly below means class 1, and equality or higher means class 0.

Given the entry UCUGAAUAGAGUCUGAAGAGU [hsa-miR-4427] , would its reported percent viability be below 40%? class 0

Given the entry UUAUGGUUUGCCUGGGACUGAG [hsa-miR-584-5p] , would its reported percent viability be below 40%? class 0

Given the entry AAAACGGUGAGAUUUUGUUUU [hsa-miR-553] , would its reported percent viability be below 40%? class 0

Given the entry GCUCAGGGAUGAUAACUGUGCUGAGA [hsa-miR-4518] , would its reported percent viability be below 40%? class 0

Given the entry AGAAGGGGUGAAAUUUAAACGU [hsa-miR-3179] , would its reported percent viability be below 40%? class 1

Given the entry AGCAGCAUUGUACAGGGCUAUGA [hsa-miR-103a-3p] , would its reported percent viability be below 40%? class 1

Given the entry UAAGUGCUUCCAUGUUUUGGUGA [hsa-miR-302a-3p] , would its reported percent viability be below 40%? class 0

Given the entry AUAUACAGGGGGAGACUCUUAU [hsa-miR-1185-1-3p] , would its reported percent viability be below 40%? class 1

Given the entry UCGGCUCUCUCCCUCACCCUAG [hsa-miR-6741-3p] , would its reported percent viability be below 40%? class 1

Given the entry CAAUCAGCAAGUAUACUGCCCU [hsa-miR-34a-3p] , would its reported percent viability be below 40%? class 1

Given the entry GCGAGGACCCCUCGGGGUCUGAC [hsa-miR-611] , would its reported percent viability be below 40%? class 0

Given the entry CAAGGAGACGGGAACAUGGAGC [hsa-miR-4428] , would its reported percent viability be below 40%? class 0

----------
- Test system: MCF10A
- assayExplanation: percent viability (nuclei count relative to siNT); higher = more viable cells
- experimentalContext: 20 nM; 72 h
Binary call on percent viability with cut-off 40%: strictly below means true, and equality or higher means false.

Given the entry AUUCUCUCUGGAUCCCAUGGAU [hsa-miR-4768-5p] , would its reported percent viability be below 40%? true

Given the entry UACUCAAAAAGCUGUCAGUCA [hsa-miR-888-5p] , would its reported percent viability be below 40%? false

Given the entry UGGGCUGGCAGGGCAAGUGCUG [hsa-miR-4498] , would its reported percent viability be below 40%? true

Given the entry UUCUGGAAUUCUGUGUGAGGGA [hsa-miR-1299] , would its reported percent viability be below 40%? false

Given the entry UCUCACUGUAGCCUCGAACCCC [hsa-miR-1304-3p] , would its reported percent viability be below 40%? false

Given the entry CUGCAGAGUUUGUACGGACCGG [hsa-miR-3678-3p] , would its reported percent viability be below 40%? false

Given the entry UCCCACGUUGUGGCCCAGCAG [hsa-miR-662] , would its reported percent viability be below 40%? false

Given the entry AGUGGACCGAGGAAGGAAGGA [hsa-miR-4800-5p] , would its reported percent viability be below 40%? false

Given the entry AACAACAAAAUCACUAGUCUUCCA [hsa-miR-3529-3p] , would its reported percent viability be below 40%? false

Given the entry CAAAUGAGCUUAAUUUCCUUUU [hsa-miR-1252-3p] , would its reported percent viability be below 40%? false

Given the entry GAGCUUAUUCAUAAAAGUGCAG [hsa-miR-590-5p] , would its reported percent viability be below 40%? false

Given the entry GGGCUGGGGCGCGGGGAGGU [hsa-miR-5787] , would its reported percent viability be below 40%? false

Given the entry UACUUGGAAAGGCAUCAGUUG [hsa-miR-890] , would its reported percent viability be below 40%? true

Given the entry CAAAGGCCACAUUCUCCUGUGCAC [hsa-miR-6768-3p] , would its reported percent viability be below 40%? true

Given the entry UGGGCGAGGGGUGGGCUCUCAGAG [hsa-miR-4649-5p] , would its reported percent viability be below 40%? false

Given the entry UUCCUUCUGUUGUCUGUGCAG [hsa-miR-6868-3p] , would its reported percent viability be below 40%? true

Given the entry UGAGUGUGUGUGUGUGAGUGUGU [hsa-miR-574-5p] , would its reported percent viability be below 40%? false

Given the entry GCCGGACAAGAGGGAGG [hsa-miR-4442] , would its reported percent viability be below 40%? false

Given the entry GAAUCGGAAAGGAGGCGCCG [hsa-miR-3610] , would its reported percent viability be below 40%? false

Given the entry UAGGCACACUUAAAGUUAUAGC [hsa-miR-5582-5p] , would its reported percent viability be below 40%? true

Given the entry ACCUGGGUUGUCCCCUCUAG [hsa-miR-6742-3p] , would its reported percent viability be below 40%? false

Given the entry UGACUGCCUCACUGACCACUU [hsa-miR-5002-3p] , would its reported percent viability be below 40%? false

Given the entry CUCCCCUCUCUUUCCUGUUCAG [hsa-miR-6826-3p] , would its reported percent viability be below 40%? false

Given the entry UACGGUGAGCCUGUCAUUAUUC [hsa-miR-433-5p] , would its reported percent viability be below 40%? true

----------
- Test system: MCF10A
- assayExplanation: percent viability (nuclei count relative to siNT); higher = more viable cells
- experimentalContext: 20 nM; 72 h
readoutType: percent viability (%)
Write the answer as a number in %, unit excluded.

Answer with the recorded percent viability for the sequence listed here: UGGAGUUAAGGGUUGCUUGGAGA [hsa-miR-4653-3p] 12.9

Answer with the recorded percent viability for the sequence listed here: UGGUGGGUGGGGAGGAGAAGUGC [hsa-miR-6769b-5p] 18.8

Answer with the recorded percent viability for the sequence listed here: ACCCUUGAGCCUGAUCCCUAGC [hsa-miR-4780] 99.8

Answer with the recorded percent viability for the sequence listed here: AGUUGCCUUUUUGUUCCCAUGC [hsa-miR-4423-5p] 44.9

Answer with the recorded percent viability for the sequence listed here: GUGAGCCAGUGGAAUGGAGAGG [hsa-miR-6807-5p] 74.2

Answer with the recorded percent viability for the sequence listed here: GCCCUGAACGAGGGGUCUGGAG [hsa-miR-345-3p] 61

Answer with the recorded percent viability for the sequence listed here: UAAAAUUUGCAUCCAGGA [hsa-miR-4282] 66

Answer with the recorded percent viability for the sequence listed here: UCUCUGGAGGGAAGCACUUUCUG [hsa-miR-518c-5p] 45.4

Answer with the recorded percent viability for the sequence listed here: UGUAGUUGUAUUGUAUUGCCAC [hsa-miR-4703-3p] 40.8

Answer with the recorded percent viability for the sequence listed here: UCUGGUAUGUAGUAGGUAAUAA [hsa-miR-4774-5p] 62.8

Answer with the recorded percent viability for the sequence listed here: CCCGCAGGUGAGAUGAGGGCU [hsa-miR-6886-5p] 28.8

----------
For each entry below, report its 5+ nucleoli phenotype percent effect value.
- Test system: MCF10A
- assayExplanation: 5+ nucleoli phenotype percent effect (relative to siNT 0% and siKIF11 100%); higher = more cells with five or more nucleoli
- experimentalContext: 20 nM; 72 h
Write the answer as a number in %, unit excluded.

Answer with the recorded 5+ nucleoli phenotype percent effect for the sequence listed here: AGAGUCUUGUGAUGUCUUGC [hsa-miR-924] -44.9

Answer with the recorded 5+ nucleoli phenotype percent effect for the sequence listed here: UGAGGCUCUGUUAGCCUUGGCUC [hsa-miR-2467-5p] -10.9

Answer with the recorded 5+ nucleoli phenotype percent effect for the sequence listed here: AGGUUGACAUACGUUUCCC [hsa-miR-563] 46.2

Answer with the recorded 5+ nucleoli phenotype percent effect for the sequence listed here: CUCUGAUCGCCCUCUCAGCUC [hsa-miR-3192-3p] -48.8

Answer with the recorded 5+ nucleoli phenotype percent effect for the sequence listed here: GCAGGACAGGCAGAAGUGGAU [hsa-miR-4436a] 32.1

Answer with the recorded 5+ nucleoli phenotype percent effect for the sequence listed here: AGGGAGAAAGCUAGAAGCUGAAG [hsa-miR-6878-5p] 44.5

Answer with the recorded 5+ nucleoli phenotype percent effect for the sequence listed here: AGGCUGCGGAAUUCAGGAC [hsa-miR-604] -15.7

Answer with the recorded 5+ nucleoli phenotype percent effect for the sequence listed here: AUCUGCUCUCUUGUUCCCAG [hsa-miR-6828-3p] 10.5

Answer with the recorded 5+ nucleoli phenotype percent effect for the sequence listed here: GCUGGGCGAGGCUGGCA [hsa-miR-4486] 3.78

Answer with the recorded 5+ nucleoli phenotype percent effect for the sequence listed here: CAAAAACUGCAAUUACUUUUGC [hsa-miR-548aq-3p] 13.8

Answer with the recorded 5+ nucleoli phenotype percent effect for the sequence listed here: UACCUGGGAGACUGAGGUUGGA [hsa-miR-7851-3p] 24.6

Answer with the recorded 5+ nucleoli phenotype percent effect for the sequence listed here: AGAGUCGGCGACGCCGCCAGC [hsa-miR-4785] -30.3

Answer with the recorded 5+ nucleoli phenotype percent effect for the sequence listed here: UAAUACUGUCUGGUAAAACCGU [hsa-miR-429] 61.9

Answer with the recorded 5+ nucleoli phenotype percent effect for the sequence listed here: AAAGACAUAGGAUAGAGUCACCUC [hsa-miR-641] 1.49

Answer with the recorded 5+ nucleoli phenotype percent effect for the sequence listed here: AGGUGGGUAUGGAGGAGCCCU [hsa-miR-6769a-5p] -16.7

Answer with the recorded 5+ nucleoli phenotype percent effect for the sequence listed here: CUCAUUUAAGUAGUCUGAUGCC [hsa-miR-5696] -2.38

Answer with the recorded 5+ nucleoli phenotype percent effect for the sequence listed here: AUCUGUCUCGAUUGUUUCCAG [hsa-miR-6888-3p] 6.29

Answer with the recorded 5+ nucleoli phenotype percent effect for the sequence listed here: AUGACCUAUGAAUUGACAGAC [hsa-miR-215] -16.4

Answer with the recorded 5+ nucleoli phenotype percent effect for the sequence listed here: GGUGGUUGAGGCUGCAGUAAGU [hsa-miR-1273g-5p] 22.4

Answer with the recorded 5+ nucleoli phenotype percent effect for the sequence listed here: CAACCUCGACGAUCUCCUCAGC [hsa-miR-3150a-5p] 22.1

Answer with the recorded 5+ nucleoli phenotype percent effect for the sequence listed here: UAUGGGGCUUCUGUAGAGAUUUC [hsa-miR-3675-5p] -9.76

Answer with the recorded 5+ nucleoli phenotype percent effect for the sequence listed here: AGGGUGUGUGUGUUUUU [hsa-miR-4455] 13.6

Answer with the recorded 5+ nucleoli phenotype percent effect for the sequence listed here: ACCGUGGCUUUCGAUUGUUACU [hsa-miR-132-5p] -7.44

Answer with the recorded 5+ nucleoli phenotype percent effect for the sequence listed here: AGGGGACCAAAGAGAUAUAUAG [hsa-miR-3144-5p] 33.4
